Molecular target: UniProt P17931
Experiment: fluorescence anisotropy assay, compound as inhibitor of galectin / fluorescein tagged saccharide probe interaction
Type: binding
pKd: −log10 of the molar value.
TEST_READOUT: pKd

(1) CO[C@@H]1[C@@H](n2cc(-c3nc(Cl)cs3)nn2)[C@@H](O)[C@@H](CO)O[C@@H]1Sc1cc(C)cnc1C#N [Example 36]
(2) CO[C@@H]1[C@@H](n2cc(-c3nc(Cl)cs3)nn2)[C@@H](O)[C@@H](CO)O[C@@H]1Sc1cc(Cl)ccc1C#N [Example 96]
(3) CO[C@@H]1[C@@H](n2cc(-c3csc(N)n3)nn2)[C@@H](O)[C@@H](CO)O[C@@H]1Sc1cc(Cl)cnc1-c1cccnc1 [Example 23]
Task: Could you arrange the 3 compounds above by pKd, starting with the largest number? Quick reminder: the answer is the labels in the order asked.
Output: 2, 1, 3

###

Target: Galectin-3 (Homo sapiens)
Assay: fluorescence anisotropy assay, compound as inhibitor of galectin / fluorescein tagged saccharide probe interaction
TEST_READOUT: Kd (µM)

>>> result_number("CO[C@@H]1[C@@H](n2cc(-c3nccs3)nn2)[C@@H](O)[C@@H](CO)O[C@@H]1Sc1cc(Cl)c(F)c(Cl)c1")
8

(a) CO[C@@H]1[C@@H](n2cc(-c3csc(N)n3)nn2)[C@@H](O)[C@@H](CO)O[C@@H]1Sc1cc(Cl)cnc1C1=CCNCC1
(b) CO[C@@H]1[C@@H](n2cc(-c3nccs3)nn2)[C@@H](O)[C@@H](CO)O[C@@H]1Sc1cc(Br)cnc1C#N
Task: Rank a against b by their Kd values and give the higher one. Kindly state the label of the option you pick.
Output: a

###

Target: Galectin-3 (Homo sapiens)
Test: fluorescence anisotropy assay, compound as inhibitor of galectin / fluorescein tagged saccharide probe interaction
TEST_READOUT: Kd (µM)

These solved cases illustrate the format of a correct answer.
>>> result_number("C#Cc1cncc(S[C@H]2O[C@H](CO)[C@H](O)[C@H](n3cc(-c4nccs4)nn3)[C@H]2OC)c1 [Example 47]")
3.2
>>> result_number("CO[C@@H]1[C@@H](n2cc(-c3csc(O)n3)nn2)[C@@H](O)[C@@H](CO)O[C@@H]1Sc1ccc2ncsc2c1 [Example 98]")
6.5

(a) CO[C@@H]1[C@@H](n2cc(-c3nc(C)cs3)nn2)[C@@H](O)[C@@H](CO)O[C@@H]1Sc1cc(Br)ccc1C#N [Example 63]
(b) CCO[C@@H]1[C@@H](n2cc(-c3nc(Cl)cs3)nn2)[C@@H](O)[C@@H](CO)O[C@@H]1Sc1cc(Br)cnc1C(=O)N(C)C [Example 90]
Task: Rank a against b by their Kd values and give the higher one. Kindly state the label of the option you pick.
Output: a
(a: 2.9 µM, b: 0.044 µM)

###

Target: Galectin-3 (Homo sapiens)
Experiment: fluorescence anisotropy assay, compound as inhibitor of galectin / fluorescein tagged saccharide probe interaction
pKd: −log10 of the molar value.
TEST_READOUT: pKd

>>> result_number("CO[C@@H]1[C@@H](n2cc(-c3nc(C)cs3)nn2)[C@@H](O)[C@@H](CO)O[C@@H]1Sc1cc(Br)ccc1F")
4.92
>>> result_number("CO[C@@H]1[C@@H](n2cc(-c3nc(C)c(Cl)s3)nn2)[C@@H](O)[C@@H](CO)O[C@@H]1Sc1cc(Br)ccc1C#N")
6.62
>>> result_number("N#Cc1ccc(S[C@@H]2C[C@@H](n3cc(-c4csc(N)n4)nn3)[C@@H](O)[C@@H](CO)O2)cc1Cl")
4.99

(I) CNC(=O)c1ccc(Br)cc1S[C@H]1OC(CO)[C@H](O)C(n2cc(-c3nc(Cl)cs3)nn2)C1OC (some centres unmarked)
(II) CNC(=O)c1ncc(Cl)cc1S[C@H]1O[C@H](CO)[C@H](O)[C@H](n2cc(-c3nc(Cl)cs3)nn2)[C@H]1OC
Task: Rank I against II by their pKd values and give the higher one. Kindly state the label of the option you pick.
Output: II

###

Molecular target: UniProtKB P09382
Sequence (P09382 whole entry): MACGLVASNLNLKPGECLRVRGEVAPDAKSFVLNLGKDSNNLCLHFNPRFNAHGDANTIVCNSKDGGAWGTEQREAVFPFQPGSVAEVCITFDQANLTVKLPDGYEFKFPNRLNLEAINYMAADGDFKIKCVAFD
Assay: fluorescence anisotropy assay, compound as inhibitor of galectin / fluorescein tagged saccharide probe interaction
Format: binding
TEST_READOUT: Kd (nM)

These solved cases illustrate the format of a correct answer.
>>> result_number("CO[C@@H]1[C@@H](n2cc(-c3csc(N)n3)nn2)[C@@H](O)[C@@H](CO)O[C@@H]1Sc1ccc2ncsc2c1")
180
>>> result_number("COC1C(n2cc(-c3csc(N)n3)nn2)[C@@H](O)C(CO)O[C@@H]1Sc1cc(Cl)cnc1N1CC2(COC2)C1 (some centres unmarked)")
100
>>> result_number("C#Cc1cncc(S[C@H]2O[C@H](CO)[C@H](O)[C@H](n3cc(-c4csc(N)n4)nn3)[C@H]2OC)c1")
190

(P) CO[C@@H]1[C@@H](n2cc(-c3csc(N)n3)nn2)[C@@H](O)[C@@H](CO)O[C@@H]1Sc1ccc(C(F)(F)F)c(Cl)c1
(Q) CO[C@@H]1[C@@H](n2cc(-c3nccs3)nn2)[C@@H](O)[C@@H](CO)O[C@@H]1Sc1cc(Cl)ccc1Cl
Task: Between the entries labeled P and Q , whose measured Kd is lower? Kindly state the label of the option you pick.
Output: P

(1) CO[C@@H]1[C@@H](n2cc(-c3nc(C)cs3)nn2)[C@@H](O)[C@@H](CO)O[C@@H]1Sc1cc(Br)ccc1C#N
(2) CCNC(=O)c1ncc(Cl)cc1S[C@H]1O[C@H](CO)[C@H](O)[C@H](n2cc(-c3nc(Cl)cs3)nn2)[C@H]1OC
Task: Between the entries labeled 1 and 2 , whose measured Kd is lower? Kindly state the label of the option you pick.
Output: 2
(2: 12 nM, 1: 54 nM)

(I) CO[C@@H]1[C@@H](n2cc(-c3nccs3)nn2)[C@@H](O)[C@@H](CO)O[C@@H]1Sc1cc(Br)ccc1Cl
(II) CCO[C@@H]1[C@@H](n2cc(-c3nccs3)nn2)[C@@H](O)[C@@H](CO)O[C@@H]1Sc1cc(Cl)cnc1C#N
Task: Between the entries labeled I and II , whose measured Kd is lower? Kindly state the label of the option you pick.
Output: II
(II: 120 nM, I: 260 nM)

###

Target: Galectin-3 (Homo sapiens, UniProt P17931)
Sequence (P17931 whole entry): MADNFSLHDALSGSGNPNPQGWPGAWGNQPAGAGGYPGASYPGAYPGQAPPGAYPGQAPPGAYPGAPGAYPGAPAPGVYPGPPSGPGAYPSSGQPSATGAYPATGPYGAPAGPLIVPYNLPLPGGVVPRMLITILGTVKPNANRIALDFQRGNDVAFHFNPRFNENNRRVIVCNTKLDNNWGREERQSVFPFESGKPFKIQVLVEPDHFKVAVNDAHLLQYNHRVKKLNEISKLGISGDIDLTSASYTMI
Assay: fluorescence anisotropy assay, compound as inhibitor of galectin / fluorescein tagged saccharide probe interaction
Type: binding
pKd: −log10 of the molar value.
TEST_READOUT: pKd

These solved cases illustrate the format of a correct answer.
>>> result_number("N#Cc1ncc(Cl)cc1S[C@H]1O[C@H](CO)[C@H](O)[C@H](n2cc(-c3csc(Cl)n3)nn2)[C@H]1O")
6.38
>>> result_number("CO[C@@H]1[C@@H](n2cc(-c3csc(N)n3)nn2)[C@@H](O)[C@@H](CO)O[C@@H]1Sc1cc(Cl)cnc1C")
5.27

(1) Nc1nc(-c2cn([C@@H]3[C@@H](O)[C@@H](Sc4cc(Cl)cnc4-c4ncc[nH]4)O[C@H](CO)[C@@H]3O)nn2)cs1
(2) C#Cc1cnc(C#N)c(S[C@H]2O[C@H](CO)[C@H](O)[C@H](n3cc(-c4csc(N)n4)nn3)[C@H]2O)c1
(3) CO[C@@H]1[C@@H](n2cc(-c3nc(Cl)cs3)nn2)[C@@H](O)[C@@H](CO)O[C@@H]1Sc1cncc(SC(F)(F)F)c1
(4) CO[C@@H]1[C@@H](n2cc(-c3nc(Cl)cs3)nn2)[C@@H](O)[C@@H](CO)O[C@@H]1Sc1cnc2ncsc2c1
Task: Reorder the items by pKd, least to greatest. Quick reminder: the answer is the labels in the order asked.
Output: 1, 2, 3, 4
(1: 4.95, 2: 5.39, 3: 6.00, 4: 6.40)

###

Molecular target: Galectin-3 (Homo sapiens)
Test: fluorescence anisotropy assay, compound as inhibitor of galectin / fluorescein tagged saccharide probe interaction
TEST_READOUT: Kd (nM)

These solved cases illustrate the format of a correct answer.
>>> result_number("N#Cc1ncc(Cl)cc1S[C@H]1O[C@H](CO)[C@H](O)[C@H](n2cc(-c3nccs3)nn2)[C@H]1OCc1cc(F)c(O)c(F)c1")
950
>>> result_number("COC1C(n2cc(-c3csc(N)n3)nn2)[C@@H](O)C(CO)O[C@@H]1Sc1ccc(Cl)c(Cl)c1 (stereo partly shown)")
2400

(a) C#Cc1cnc(C(=O)N(C)C)c(S[C@H]2O[C@H](CO)[C@H](O)[C@H](n3cc(-c4nc(Cl)cs4)nn3)[C@H]2OC)c1
(b) CCO[C@@H]1[C@@H](n2cc(-c3nc(Cl)cs3)nn2)[C@@H](O)[C@@H](CO)O[C@@H]1Sc1cc(Br)cnc1C#N
Task: Between the entries labeled a and b , whose measured Kd is lower? Kindly state the label of the option you pick.
Output: a
(a: 51 nM, b: 170 nM)

###

Target: Galectin-3 (Homo sapiens)
Assay: fluorescence anisotropy assay, compound as inhibitor of galectin / fluorescein tagged saccharide probe interaction
TEST_READOUT: Kd (µM)

>>> result_number("CO[C@@H]1[C@@H](n2cc(-c3nc(C)cs3)nn2)[C@@H](O)[C@@H](CO)O[C@@H]1Sc1cc(Cl)cnc1-c1ccccn1")
2.53

(I) CO[C@@H]1[C@@H](n2cc(-c3nc(C)c(Cl)s3)nn2)[C@@H](O)[C@@H](CO)O[C@@H]1Sc1cc(Br)cnc1C#N
(II) CCO[C@@H]1[C@@H](n2cc(-c3csc(N)n3)nn2)[C@@H](O)[C@@H](CO)O[C@@H]1Sc1ccc(Cl)c(Cl)c1
Task: Rank I against II by their Kd values and give the higher one. Kindly state the label of the option you pick.
Output: II
(II: 5.5 µM, I: 0.22 µM)

Origin of the recorded values: patent US12441754B2
